Reference source for all entries: ChEMBL document CHEMBL3734721

Assay remarks: Fraction unbound in rat brain at 5 uM after 5 hrs by LC-MS/MS analysis
Assay type: ADME, tissue-based
We begin with a simple list: items and their reported fraction unbound at 5 h, 5 µM.
Parameter measured: fraction unbound at 5 h, 5 µM

CB1C=Cc2cccc(OCC(O)CNC(C)C)c2N1 (stereo not drawn) : 0.0055
CC(C)NCC(O)COc1cccc2ccccc12 (stereo not drawn) [PROPRANOLOL] : 0.028
CB1C=Cc2c(cccc2OCC(O)CN(C)C)N1 (stereo not drawn) : 0.019

====

Quick record of IC50 values for Cytochrome P450 2C8 (Homo sapiens, UniProt P10632).
Parameter measured: IC50

CB1C=Cc2cccc(OCC(O)CNC(C)C)c2N1 (configuration not stated) : > 10 µM
CB1C=Cc2c(cccc2OCC(O)CN(C)C)N1 (configuration not stated) : > 10 µM

====

Assayed system: Endothelin-1 receptor (Homo sapiens, UniProt P25101)
Sequence (P25101 whole entry): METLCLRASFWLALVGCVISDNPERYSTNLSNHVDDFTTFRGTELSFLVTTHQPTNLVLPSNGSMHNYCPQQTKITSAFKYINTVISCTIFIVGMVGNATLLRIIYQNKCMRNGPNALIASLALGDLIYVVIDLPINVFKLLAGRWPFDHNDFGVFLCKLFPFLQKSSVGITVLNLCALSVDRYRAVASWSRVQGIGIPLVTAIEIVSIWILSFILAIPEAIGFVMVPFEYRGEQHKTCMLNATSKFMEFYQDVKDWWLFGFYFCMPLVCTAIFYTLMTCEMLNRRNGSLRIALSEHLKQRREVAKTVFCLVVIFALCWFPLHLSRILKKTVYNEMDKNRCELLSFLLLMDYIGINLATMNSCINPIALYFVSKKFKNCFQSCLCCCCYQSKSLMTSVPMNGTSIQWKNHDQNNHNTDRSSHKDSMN
Assay remarks: Agonist activity at human wild-type ETA receptor expressed in CHO-K1 cells assessed as calcium level by HTRF assay
pEC50: −log10 of the molar value.
We begin with a simple list: items and their reported pEC50.
Parameter measured: pEC50

CB1C=Cc2cccc(OCC(O)CNC(C)C)c2N1 (configuration not stated) : < 5.30
CB1C=Cc2c(cccc2OCC(O)CN(C)C)N1 (configuration not stated) : < 5.30
